- system_tested: ATP-dependent Clp protease proteolytic subunit (Bacillus subtilis (strain 168))
- assay_remarks: qHTS Assay for Activators of ClpP; further: the source files actives as falling curves though it sought activators and does not explain the sign; nearly all actives have a fitted effect of over 65% in size
- details: purified B. subtilis ClpP, FRET peptide cleavage, 20 min; series mostly up to 57.5 µM
Among all 340,000 compounds or so, about 6,400 (1.9%) were called active. Inconclusive results (about 4%) are left out. The call rests on the fitted dose curve; in most records, active means well fitted falling curve with a large enough effect; inconclusive means small, poorly fitted or top-dose-only effect; inactive means no such curve, though single readings can be large or run the other way. Many of the other results were omitted from the sample, so actives are more common in it than they were.
Reply using exactly one outcome from true (active), false (inactive)

The following molecules have reported results that may help.
In [3]: df
Out[3]:
                                   molecule                             system_tested  class_name
0   Cc1ccc(S(=O)(=O)N2CCN(c3ccccc3)CC2)cc1C  ATP-dependent Clp protease proteolytic subunit (Bacillus subtilis (strain 168))        true
1  O=C(NCc1ccccc1Cl)c1csc([C@@H]2O[C@H](CO)[C@@H](O)[C@H]2O)n1  ATP-dependent Clp protease proteolytic subunit (Bacillus subtilis (strain 168))       false
2  COCCN(Cc1ccco1)C(=O)Cn1ncc2c([nH]c3ccccc32)c1=O  ATP-dependent Clp protease proteolytic subunit (Bacillus subtilis (strain 168))       false

Ask: Kindly provide the recorded test outcome for the following molecule: CC1=C(C(=O)N(C(C)C)C(C)C)CC(CC(=O)NCC2CCCCC2)C(=O)N1Cc1ccccc1 (stereo not given)
Reply: false

Ask: Kindly provide the recorded test outcome for the following molecule: `COc1cc(NC(=O)c2cc(-c3ccc(F)cc3OC(C)C)n[nH]2)cc(OC)c1OC`
Reply: false

Ask: Kindly provide the recorded test outcome for the following molecule: `COc1ccc(NC(=O)CN2CCN(S(=O)(=O)c3ccc(F)cc3)CC2)cc1Cl`
Reply: false

Ask: Kindly provide the recorded test outcome for the following molecule: `CC(=O)N1Cc2cc(C(=O)NCc3cccc(F)c3)nc(-c3cccc(C4=CCCC4)c3)c2[C@H]1CCO`
Reply: false

Ask: Kindly provide the recorded test outcome for the following molecule: `COc1ccccc1NC(=O)CN1CCN(S(=O)(=O)c2ccc(Br)cc2)CC1`
Reply: false

Ask: Kindly provide the recorded test outcome for the following molecule: `CN(CCc1ccccn1)S(=O)(=O)c1ccc2c3c(cccc13)C(=O)N2`
Reply: true

Ask: Kindly provide the recorded test outcome for the following molecule: `Cc1cccc(C)c1NC(=O)CN1CCN(c2ccc(F)cc2)CC1`
Reply: false

Ask: Kindly provide the recorded test outcome for the following molecule: `O=C(Nc1cc(Br)ccc1F)c1nc[nH]c1C(=O)NCc1ccccc1`
Reply: false

Ask: Kindly provide the recorded test outcome for the following molecule: CC1(C(=O)NS(=O)(=O)c2ccc(C#N)cc2)CCN1C(=O)c1ccc(C2CCCCC2)cc1 (stereo not given)
Reply: false
